- Tested System: Vascular endothelial growth factor receptor 2 (Homo sapiens, UniProt P35968)
- Sequence (P35968 whole entry): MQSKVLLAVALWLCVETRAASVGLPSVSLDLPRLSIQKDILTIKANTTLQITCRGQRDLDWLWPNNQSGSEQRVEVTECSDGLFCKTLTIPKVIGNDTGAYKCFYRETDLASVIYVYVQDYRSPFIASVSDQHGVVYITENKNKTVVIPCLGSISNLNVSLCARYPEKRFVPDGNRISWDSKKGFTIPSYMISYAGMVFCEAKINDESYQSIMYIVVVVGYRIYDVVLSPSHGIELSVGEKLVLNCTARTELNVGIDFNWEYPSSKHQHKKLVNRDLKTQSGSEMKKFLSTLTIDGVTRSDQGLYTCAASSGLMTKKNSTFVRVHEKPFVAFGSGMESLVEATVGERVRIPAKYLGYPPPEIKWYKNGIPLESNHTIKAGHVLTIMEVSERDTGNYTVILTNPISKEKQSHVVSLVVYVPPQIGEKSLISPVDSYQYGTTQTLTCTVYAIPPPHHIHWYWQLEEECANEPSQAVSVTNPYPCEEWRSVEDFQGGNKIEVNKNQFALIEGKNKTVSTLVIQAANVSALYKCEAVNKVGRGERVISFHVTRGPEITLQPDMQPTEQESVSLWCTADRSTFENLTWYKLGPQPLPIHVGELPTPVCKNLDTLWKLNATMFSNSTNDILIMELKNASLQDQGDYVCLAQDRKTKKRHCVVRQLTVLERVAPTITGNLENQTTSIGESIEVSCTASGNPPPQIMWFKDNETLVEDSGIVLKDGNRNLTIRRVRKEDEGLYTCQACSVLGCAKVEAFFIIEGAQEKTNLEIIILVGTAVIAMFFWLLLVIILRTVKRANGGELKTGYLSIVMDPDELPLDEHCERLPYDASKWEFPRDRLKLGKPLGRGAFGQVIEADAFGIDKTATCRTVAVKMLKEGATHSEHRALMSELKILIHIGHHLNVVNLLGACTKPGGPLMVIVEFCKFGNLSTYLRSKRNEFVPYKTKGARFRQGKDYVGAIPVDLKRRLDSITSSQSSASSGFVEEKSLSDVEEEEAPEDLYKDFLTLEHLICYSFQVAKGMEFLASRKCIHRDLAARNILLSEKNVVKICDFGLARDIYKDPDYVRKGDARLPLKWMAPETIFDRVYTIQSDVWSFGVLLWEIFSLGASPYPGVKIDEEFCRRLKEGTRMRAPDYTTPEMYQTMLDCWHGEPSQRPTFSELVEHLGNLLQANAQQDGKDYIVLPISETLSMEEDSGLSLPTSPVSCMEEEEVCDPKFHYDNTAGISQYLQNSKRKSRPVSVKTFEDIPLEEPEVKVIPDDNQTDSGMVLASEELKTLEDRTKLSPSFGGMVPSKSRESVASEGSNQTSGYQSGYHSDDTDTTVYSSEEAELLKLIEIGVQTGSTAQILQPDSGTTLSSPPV
Please respond with reported IC50 for every item in the list.
Answers are plain numbers, in µM.

O=C(Nc1ccccc1)Nc1ccc(Nc2cnc3cc([N+](=O)[O-])ccc3n2)cc1: 268
COc1ccc(Nc2cnc3cc(NC(=O)Nc4cccc(C)c4)ccc3n2)cc1: 210

Please give the measured IC50 for this molecule: COc1ccc(Nc2nc3ccc(NC(=O)Nc4ccccc4)cc3[nH]c2=O)cc1
10.3
